Data origin: paper PMC8981170

Target chain: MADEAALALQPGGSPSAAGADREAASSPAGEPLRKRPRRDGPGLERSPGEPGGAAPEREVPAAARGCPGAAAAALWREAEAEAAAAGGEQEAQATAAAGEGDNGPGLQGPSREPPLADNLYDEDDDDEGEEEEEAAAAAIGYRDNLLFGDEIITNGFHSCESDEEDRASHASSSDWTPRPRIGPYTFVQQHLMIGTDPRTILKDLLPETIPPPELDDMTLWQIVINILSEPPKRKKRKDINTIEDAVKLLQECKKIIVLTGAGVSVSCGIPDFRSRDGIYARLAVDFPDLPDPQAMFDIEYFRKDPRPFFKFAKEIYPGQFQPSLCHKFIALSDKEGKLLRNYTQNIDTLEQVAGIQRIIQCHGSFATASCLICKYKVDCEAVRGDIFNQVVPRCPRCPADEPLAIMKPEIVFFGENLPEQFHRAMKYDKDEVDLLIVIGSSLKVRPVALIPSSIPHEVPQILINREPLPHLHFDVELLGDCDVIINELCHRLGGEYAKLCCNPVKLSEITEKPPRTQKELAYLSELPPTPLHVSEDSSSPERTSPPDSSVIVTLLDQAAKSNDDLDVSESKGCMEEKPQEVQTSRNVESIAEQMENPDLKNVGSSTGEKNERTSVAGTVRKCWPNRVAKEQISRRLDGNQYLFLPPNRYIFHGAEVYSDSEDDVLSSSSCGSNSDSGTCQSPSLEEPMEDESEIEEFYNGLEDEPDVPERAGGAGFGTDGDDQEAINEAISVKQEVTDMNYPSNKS
pIC50: −log10 of the molar value.
readout_kind: pIC50

- O=C(O)[C@H](Cc1c[nH]c2ccccc12)N1C(=O)C(=Cc2c[nH]nc2-c2ccc([N+](=O)[O-])cc2)SC1=S [Compound 13l]: 6.14
- O=C(O)[C@H](Cc1c[nH]c2ccccc12)N1C(=O)C(=Cc2c[nH]nc2-c2cc(F)cc(F)c2)SC1=S [Compound 13h]: 6.18
- COc1ccc(-c2n[nH]cc2C=C2SC(=S)N([C@@H](Cc3c[nH]c4ccccc34)C(=O)O)C2=O)cc1 [Compound 13d]: 6.15
- COc1ccc(-c2nc3cc(C(=O)N[C@@H](Cc4c[nH]c5ccccc45)C(=O)O)ccc3n2C2CCCCC2)cc1 [Compound 7d]: 6.11

----------
tested_on: Sirt1 (Homo sapiens, UniProt Q96EB6)
Sequence (Q96EB6 1-747): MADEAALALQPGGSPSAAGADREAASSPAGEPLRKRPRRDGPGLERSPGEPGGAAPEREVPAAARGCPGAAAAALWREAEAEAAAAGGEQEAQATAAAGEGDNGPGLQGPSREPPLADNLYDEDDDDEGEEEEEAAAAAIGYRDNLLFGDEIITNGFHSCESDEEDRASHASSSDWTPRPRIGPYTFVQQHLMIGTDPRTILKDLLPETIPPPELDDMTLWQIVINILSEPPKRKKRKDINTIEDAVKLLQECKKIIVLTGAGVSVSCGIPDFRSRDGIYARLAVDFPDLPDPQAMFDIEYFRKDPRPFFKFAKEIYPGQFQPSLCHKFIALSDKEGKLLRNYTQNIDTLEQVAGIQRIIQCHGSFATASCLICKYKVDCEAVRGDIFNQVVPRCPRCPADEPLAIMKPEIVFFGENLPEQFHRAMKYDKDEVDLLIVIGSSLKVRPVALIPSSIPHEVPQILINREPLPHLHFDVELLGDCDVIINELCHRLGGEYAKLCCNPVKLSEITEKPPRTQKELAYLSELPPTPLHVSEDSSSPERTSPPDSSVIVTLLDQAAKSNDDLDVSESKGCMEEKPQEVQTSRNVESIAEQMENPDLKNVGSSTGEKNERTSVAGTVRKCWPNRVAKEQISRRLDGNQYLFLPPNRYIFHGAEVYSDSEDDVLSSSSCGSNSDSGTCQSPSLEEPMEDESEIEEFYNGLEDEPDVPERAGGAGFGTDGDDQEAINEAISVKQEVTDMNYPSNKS
test_protocol: Enzyme-based Sirt1 inhibition assay at 10 μM
Format: biochemical
conditions: 10 μM, mean of three independent experiments
Below, each entry is listed with its recorded % inhibition at 10 μM Sirt1.
readout_kind: % inhibition at 10 μM Sirt1 (%)

- COc1ccc(-c2nc3cc(C(=O)N[C@H](C(=O)O)C(C)C)ccc3n2C2CCCCC2)cc1 [Compound 7b]: 88.18
- COc1ccc(-c2nc3cc(C(=O)N[C@@H](C)C(=O)O)ccc3n2C2CCCCC2)cc1 [Compound 7a]: 88.03
- COc1ccc(-c2nc3cc(C(=O)N[C@@H](CC(C)C)C(=O)O)ccc3n2C2CCCCC2)cc1 [Compound 7c]: 86.34

----------
tested_on: Sirt1 (Homo sapiens)
test_protocol: Cell-based Sirt1 inhibition in HepG2 cells
conditions: HepG2, read-out: % Inhibition Sirt1, HepG2 cells, 10 μM, 6 h; n = 3
readout_kind: inhibition at 10 µM

• COc1ccc(-c2n[nH]cc2C=C2SC(=S)N([C@@H](Cc3c[nH]c4ccccc34)C(=O)O)C2=O)cc1 [Compound 13d] = ≥ 30%
• COc1ccc(-c2nc3cc(C(=O)N[C@@H](Cc4c[nH]c5ccccc45)C(=O)O)ccc3n2C2CCCCC2)cc1 [Compound 7d] = ≥ 30%
• COc1ccc(-c2nc3cc(C(=O)N[C@@H](CC(C)C)C(=O)O)ccc3n2C2CCCCC2)cc1 [Compound 7c] = 3.24%
• COc1ccc(-c2nc3cc(C(=O)N[C@@H](C)C(=O)O)ccc3n2C2CCCCC2)cc1 [Compound 7a] = < 1%
• O=C(N[C@@H](Cc1c[nH]c2ccccc12)C(=O)O)c1ccc2c(c1)nc(-c1ccc(F)cc1)n2C1CCCCC1 [Compound 7h] = < 1%
• O=C(O)[C@H](Cc1c[nH]c2ccccc12)N1C(=O)C(=Cc2c[nH]nc2-c2cc(F)cc(F)c2)SC1=S [Compound 13h] = ≥ 30%
• CC(C)C[C@H](NC(=O)c1ccc2c(c1)nc(-c1ccc(F)cc1)n2C1CCCCC1)C(=O)O [Compound 7g] = < 1%
• COc1ccc(-c2nc3cc(C(=O)N[C@H](C(=O)O)C(C)C)ccc3n2C2CCCCC2)cc1 [Compound 7b] = < 1%
• O=C(O)[C@H](Cc1c[nH]c2ccccc12)N1C(=O)C(=Cc2c[nH]nc2-c2ccc([N+](=O)[O-])cc2)SC1=S [Compound 13l] = ≥ 30%

----------
Below, each entry is listed with its recorded % inhibition at 10 μM Sirt1.
tested_on: Sirt1 (Homo sapiens)
test_protocol: Enzyme-based Sirt1 inhibition assay at 10 μM
Assay type: biochemical
conditions: 10 μM, mean of three independent experiments
readout_kind: % inhibition at 10 μM Sirt1 (%)

• O=C(O)[C@H](Cc1c[nH]c2ccccc12)N1C(=O)C(=Cc2c[nH]nc2-c2cc(F)cc(F)c2)SC1=S [Compound 13h] = 89.15
• O=C(O)[C@H](Cc1c[nH]c2ccccc12)N1C(=O)C(=Cc2c[nH]nc2-c2ccc([N+](=O)[O-])cc2)SC1=S [Compound 13l] = 89.64
• COc1ccc(-c2n[nH]cc2C=C2SC(=S)N([C@@H](Cc3c[nH]c4ccccc34)C(=O)O)C2=O)cc1 [Compound 13d] = 90.64
• COc1ccc(-c2nc3cc(C(=O)N[C@@H](Cc4c[nH]c5ccccc45)C(=O)O)ccc3n2C2CCCCC2)cc1 = 89.99
